# System: fibroblasts of patients affected by Sanfilippo A (MPS IIIA)
# assay.explanation: HS and Lamp1 immunofluorescence in Sanfilippo A patient fibroblasts
# Type: cell-based, human
# particulars: MPS-IIIA fibroblasts, 20 μM, 48 hours
# Description: To verify whether the selected iminosugars could exert the same effects also on the fibroblasts of patients affected by Sanfilippo disease, human adult dermal fibroblasts HDFa (purchased from Sigma-Aldrich) were used as control, and fibroblasts of patients affected by Sanfilippo A and B (MPS IIIA and IIIB) were used as disease model. […]
Structures can show the parent of a compound that is named as a salt.
Exercise: for every item that follows, state its recorded Cells positive for Lamp1 (%).

| compound | Cells positive for Lamp1 (%) |
| --- | --- |
| COCCCCCCCCCN1C[C@H](O)[C@@H](O)[C@H](O)[C@H]1CO.Cl [D-MONDNJ•HCl] | 95.2% |

Provide Cells positive for Lamp1 (%) values for the following items, in order.
1. OC[C@@H]1[C@@H](O)[C@H](O)[C@@H](O)CN1CCCCCOCC12CC3CC(CC(C3)C1)C2 [D-AMPDNM•HCl]
2. OC[C@H]1NC[C@H](O)[C@@H](O)[C@@H]1O [D-DNJ•HCl, deoxynojirimycin]
3. CCCCN1C[C@H](O)[C@@H](O)[C@H](O)[C@H]1CO [D-NBDNJ•HCl]

Marked response:
96.8%
95.0%
94.7%

* * *

# Tested on: NAGLU-silenced clone (cl5) of human neuroblastoma cell line SK-NBE
# assay.explanation: Immunofluorescence against beta-amyloid peptide 1-42 in NAGLU-silenced SK-NBE clone
# Type: cell-based
# particulars: 20 μM, 48 hours
# Description: The clone (c15) stably silenced for NAGLU, the causative gene of MPS IIIB, is able to mimic the features of neurodegenerative diseases as it accumulates beta-amyloid fibers in the cytoplasm. In fact, Sanfilippo Syndrome is also defined as “childhood Alzheimer”. […]
Structures can show the parent of a compound that is named as a salt.
Exercise: for every item that follows, state its recorded Relative amyloid fluorescence intensity.
Answers are plain numbers.

| compound | measurement.name | number |
| --- | --- | --- |
| OC[C@H]1[C@H](O)[C@@H](O)[C@H](O)CN1CCCCCOCC12CC3C[C@H](C1)C[C@H](C3)C2 [L-AMPDNM•HCl, N-adamantanomethoxypentyl L-DNJ] | Relative amyloid fluorescence intensity | 0.02 |

Provide Relative amyloid fluorescence intensity values for the following items, in order.
1. CCCCN1C[C@H](O)[C@@H](O)[C@H](O)[C@H]1CO [D-NBDNJ•HCl]
2. OC[C@@H]1[C@@H](O)[C@H](O)[C@@H](O)CN1CCCCCOCC12CC3CC(CC(C3)C1)C2 [D-AMPDNM•HCl]
3. OC[C@@H]1NC[C@@H](O)[C@H](O)[C@H]1O [L-DNJ•HCl]
4. COCCCCCCCCCN1C[C@H](O)[C@@H](O)[C@H](O)[C@H]1CO.Cl [D-MONDNJ•HCl]
5. COCCCCCCCCCN1C[C@@H](O)[C@H](O)[C@@H](O)[C@@H]1CO [L-MONDNJ•HCl, N-methoxynonyl L-DNJ]

Marked response:
1: 0.98; 2: 1.02; 3: 0.01; 4: 1.05; 5: 0.01

Provide Relative amyloid fluorescence intensity values for the following items, in order.
1. CCCCN1C[C@@H](O)[C@H](O)[C@@H](O)[C@@H]1CO [L-NBDNJ•HCl, N-butyl-L-deoxynojirimycin]
2. OC[C@H]1NC[C@H](O)[C@@H](O)[C@@H]1O [D-DNJ•HCl, deoxynojirimycin]

Marked response:
1. 0.01
2. 0.99

Entry source: patent US20250255856A1
